Recorded values, source ChEMBL document CHEMBL3991601.

- Target Or System: Interleukin-1 receptor-associated kinase 3 (Homo sapiens); also: in the data inactive means no Kd found up to 30 µM
- Sequence (Q9Y616 whole entry): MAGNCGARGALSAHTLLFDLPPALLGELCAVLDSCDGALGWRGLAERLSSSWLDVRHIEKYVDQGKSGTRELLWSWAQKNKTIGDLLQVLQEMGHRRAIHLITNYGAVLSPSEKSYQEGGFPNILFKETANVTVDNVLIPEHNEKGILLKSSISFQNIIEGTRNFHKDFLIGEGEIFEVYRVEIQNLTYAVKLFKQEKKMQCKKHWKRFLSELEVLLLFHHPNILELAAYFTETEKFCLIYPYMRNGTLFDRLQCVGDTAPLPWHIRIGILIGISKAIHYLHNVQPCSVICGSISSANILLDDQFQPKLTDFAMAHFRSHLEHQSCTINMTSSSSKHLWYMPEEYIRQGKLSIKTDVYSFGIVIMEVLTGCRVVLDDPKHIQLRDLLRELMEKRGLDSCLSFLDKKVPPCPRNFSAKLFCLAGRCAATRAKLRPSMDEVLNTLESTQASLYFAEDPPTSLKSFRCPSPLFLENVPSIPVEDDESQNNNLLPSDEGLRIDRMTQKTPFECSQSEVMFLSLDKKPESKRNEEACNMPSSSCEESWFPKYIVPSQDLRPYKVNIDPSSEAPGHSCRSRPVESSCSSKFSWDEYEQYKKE
Calls of active or inactive are those of the source.
Classes used: active, inactive

Compound	Class
COCC(=O)NC/C=C/c1ccc2ncnc(Nc3ccc(Oc4ccc(C)nc4)c(C)c3)c2c1	inactive
O=C(Nc1c[nH]nc1-c1nc2cc(CN3CCOCC3)ccc2[nH]1)NC1CC1	inactive
CO[C@H]1C[C@@H]2CC[C@@H](C)[C@@](O)(O2)C(=O)C(=O)N2CCCC[C@H]2C(=O)O[C@H]([C@H](C)C[C@@H]2CC[C@@H](O)[C@H](OC)C2)CC(=O)[C@H](C)/C=C(\C)[C@@H](O)[C@@H](OC)C(=O)[C@H](C)C[C@H](C)/C=C/C=C/C=C/1C	inactive
NC(=O)c1c(OCc2c(F)cc(Br)cc2F)nsc1NC(=O)NCCCCN1CCCC1	inactive
COc1cc(Nc2ncc3c(n2)-c2ccc(Cl)cc2C(c2c(F)cccc2OC)=NC3)ccc1C(=O)O	inactive
CC(C)c1cc(CNc2nc(Nc3cc(C4CC4)[nH]n3)cc(N3CCN(C)CC3)n2)on1	active
Cc1[nH]c(/C=C2\C(=O)Nc3ccccc32)c(C)c1CCC(=O)O [ORANTINIB]	inactive
C[C@H]1CNCCCN1S(=O)(=O)c1cccc2cncc(F)c12	inactive
COc1ccc(S(=O)(=O)N(C(C)=O)c2ccccc2/C=C/c2cc[n+]([O-])cc2)cc1	inactive

* * *

- Target Or System: Tyrosine-protein kinase Fyn (Homo sapiens); also: in the data inactive means no Kd found up to 30 µM
- Sequence (P06241 whole entry): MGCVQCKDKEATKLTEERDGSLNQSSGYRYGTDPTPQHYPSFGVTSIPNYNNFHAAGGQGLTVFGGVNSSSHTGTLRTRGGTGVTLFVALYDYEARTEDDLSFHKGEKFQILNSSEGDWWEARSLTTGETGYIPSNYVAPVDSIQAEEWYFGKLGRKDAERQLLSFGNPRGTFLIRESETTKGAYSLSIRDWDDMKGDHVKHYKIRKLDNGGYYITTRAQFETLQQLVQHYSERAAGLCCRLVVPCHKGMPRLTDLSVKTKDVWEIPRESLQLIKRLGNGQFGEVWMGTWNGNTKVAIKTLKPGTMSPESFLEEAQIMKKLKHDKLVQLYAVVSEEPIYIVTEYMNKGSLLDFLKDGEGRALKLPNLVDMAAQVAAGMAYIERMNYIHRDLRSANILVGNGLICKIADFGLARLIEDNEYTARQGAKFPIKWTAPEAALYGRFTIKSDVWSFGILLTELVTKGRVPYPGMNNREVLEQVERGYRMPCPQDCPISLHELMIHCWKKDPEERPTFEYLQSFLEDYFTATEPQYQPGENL
Calls of active or inactive are those of the source.
Possible outcomes: 1 (yes) (active), 0 (no) (inactive)

Molecule	Class
CO[C@H]1C[C@@H]2CC[C@@H](C)[C@@](O)(O2)C(=O)C(=O)N2CCCC[C@H]2C(=O)O[C@H]([C@H](C)C[C@@H]2CC[C@@H](OC(=O)C(C)(CO)CO)[C@H](OC)C2)CC(=O)[C@H](C)/C=C(\C)[C@@H](O)[C@@H](OC)C(=O)[C@H](C)C[C@H](C)/C=C/C=C/C=C/1C [TEMSIROLIMUS]	0 (no)
COc1ncc(-c2ccc3nccc(-c4ccnnc4)c3c2)cc1NS(=O)(=O)c1ccc(F)cc1F [OMIPALISIB]	0 (no)
CNC(=O)c1nn(C)c2c1C(C)(C)Cc1cnc(Nc3ccc(N4CCN(C)CC4)cc3)nc1-2 [MILCICLIB]	1 (yes)
O=C1NC(=O)[C@@H](c2cn3c4c(cccc24)CCC3)[C@@H]1c1c[nH]c2ccccc12 [TIVANTINIB]	0 (no)
NC(=O)Nc1cc(-c2cccc(F)c2)sc1C(=O)N[C@H]1CCCNC1 [AZD-7762]	1 (yes)
COc1ccc(S(=O)(=O)N(C(C)=O)c2ccccc2/C=C/c2cc[n+]([O-])cc2)cc1 [HMN-214]	0 (no)
Cc1nc(Nc2n[nH]c3c2CN(C(=O)N[C@H](CN(C)C)c2ccccc2)C3(C)C)c2sccc2n1 [PF-03758309]	1 (yes)
Cn1cnc2c(F)c(Nc3ccc(Br)cc3F)c(C(=O)NOCCO)cc21 [BINIMETINIB]	0 (no)
CCn1c(C(=O)N(C2CC2)C2CC2)cc2c3c(ncn3C)c(Nc3cc(C)n(C)n3)nc21 [BMS-911543]	0 (no)
CN(C[C@@H]1COCCO1)S(=O)(=O)Nc1ccc2ccc3ncc(-c4cnn(C)c4)cc3c(=O)c2c1 [MK-2461]	0 (no)
Cn1cc(-c2cnc3ccc4ccc(CS(=O)(=O)NCc5ccccn5)cc4c(=O)c3c2)cn1 [MK-8033]	0 (no)
CO[C@H]1C[C@@H]2CC[C@@H](C)[C@@](O)(O2)C(=O)C(=O)N2CCCC[C@H]2C(=O)O[C@H]([C@H](C)C[C@@H]2CC[C@@H](OP(C)(C)=O)[C@H](OC)C2)CC(=O)[C@H](C)/C=C(\C)[C@@H](O)[C@@H](OC)C(=O)[C@H](C)C[C@H](C)/C=C/C=C/C=C/1C [RIDAFOROLIMUS]	0 (no)
NC1(c2ccc(-c3nc4ccn5c(=O)[nH]nc5c4cc3-c3ccccc3)cc2)CCC1 [MK-2206]	0 (no)
N#CC1(c2ccc(NC(=O)c3cccnc3NCc3ccncc3)cc2)CCCC1 [RIVOCERANIB]	0 (no)
C[C@H]1CNCCCN1S(=O)(=O)c1cccc2cncc(F)c12	0 (no)
COCc1c(-c2ccc(NC(=O)Nc3cc(C(F)(F)F)ccc3F)c(F)c2)c2c(N)ncnn2c1CN1CCOCC1	0 (no)
Cc1nc(NC(=O)N2CCC[C@H]2C(N)=O)sc1-c1ccnc(C(C)(C)C(F)(F)F)c1 [ALPELISIB]	0 (no)

* * *

- Target Or System: Ephrin type-B receptor 6 (Homo sapiens, UniProt O15197); also: in the data inactive means no Kd found up to 30 µM
- Sequence (O15197 whole entry): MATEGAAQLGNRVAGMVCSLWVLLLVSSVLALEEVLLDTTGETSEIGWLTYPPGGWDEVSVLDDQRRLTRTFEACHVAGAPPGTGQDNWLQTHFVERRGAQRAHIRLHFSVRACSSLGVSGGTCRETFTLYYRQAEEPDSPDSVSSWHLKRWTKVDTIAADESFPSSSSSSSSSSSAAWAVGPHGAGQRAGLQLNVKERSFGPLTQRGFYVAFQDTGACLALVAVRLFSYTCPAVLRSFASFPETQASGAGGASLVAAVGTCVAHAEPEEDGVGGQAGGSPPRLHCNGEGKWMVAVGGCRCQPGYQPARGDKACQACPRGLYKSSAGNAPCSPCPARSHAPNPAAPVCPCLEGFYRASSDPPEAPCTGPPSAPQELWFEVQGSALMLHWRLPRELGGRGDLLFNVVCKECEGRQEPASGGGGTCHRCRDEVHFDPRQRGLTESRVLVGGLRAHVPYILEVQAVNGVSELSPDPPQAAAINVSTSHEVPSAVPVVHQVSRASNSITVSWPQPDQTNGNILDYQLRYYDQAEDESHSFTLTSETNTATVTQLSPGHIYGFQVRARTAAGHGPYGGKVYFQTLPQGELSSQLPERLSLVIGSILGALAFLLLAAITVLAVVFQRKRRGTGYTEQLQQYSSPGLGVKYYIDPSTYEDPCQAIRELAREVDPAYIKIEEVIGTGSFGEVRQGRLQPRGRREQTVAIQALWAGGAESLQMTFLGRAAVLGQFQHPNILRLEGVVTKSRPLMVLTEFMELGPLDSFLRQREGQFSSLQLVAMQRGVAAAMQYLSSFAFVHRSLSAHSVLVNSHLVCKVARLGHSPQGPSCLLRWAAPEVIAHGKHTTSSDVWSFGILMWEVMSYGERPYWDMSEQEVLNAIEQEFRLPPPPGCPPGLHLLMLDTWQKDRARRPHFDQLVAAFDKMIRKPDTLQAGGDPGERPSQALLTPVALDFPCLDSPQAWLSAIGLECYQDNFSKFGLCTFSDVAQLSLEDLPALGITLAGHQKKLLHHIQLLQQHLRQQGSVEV
The source made the active and inactive calls.
Assay Metric: Kd

> print(dat)
                            chemical.smiles      endpoint.value
1  NC1(c2ccc(-c3nc4ccn5c(=O)[nH]nc5c4cc3-c3ccccc3)cc2)CCC1  > 30 µM (inactive)
2  Cn1cnc2c(F)c(Nc3ccc(Br)cc3F)c(C(=O)NOCCO)cc21  > 30 µM (inactive)
3  COc1cc2c(Nc3ccc(Cl)c(Cl)c3F)ncnc2cc1OC[C@@H]1C[C@@H]2CN(C)C[C@@H]2C1            0.259 µM
4  Cn1ncc(Cl)c1-c1cc(C(=O)N[C@H](CN)Cc2ccc(F)c(F)c2)oc1Cl  > 30 µM (inactive)
5  CNC(=O)c1cccc2cc(Oc3ccnc4cc(OCC5(N)CC5)c(OC)cc34)ccc12  > 30 µM (inactive)

* * *

- Target Or System: NUAK family SNF1-like kinase 2 (Homo sapiens); also: in the data inactive means no Kd found up to 30 µM
- Sequence (Q9H093 whole entry): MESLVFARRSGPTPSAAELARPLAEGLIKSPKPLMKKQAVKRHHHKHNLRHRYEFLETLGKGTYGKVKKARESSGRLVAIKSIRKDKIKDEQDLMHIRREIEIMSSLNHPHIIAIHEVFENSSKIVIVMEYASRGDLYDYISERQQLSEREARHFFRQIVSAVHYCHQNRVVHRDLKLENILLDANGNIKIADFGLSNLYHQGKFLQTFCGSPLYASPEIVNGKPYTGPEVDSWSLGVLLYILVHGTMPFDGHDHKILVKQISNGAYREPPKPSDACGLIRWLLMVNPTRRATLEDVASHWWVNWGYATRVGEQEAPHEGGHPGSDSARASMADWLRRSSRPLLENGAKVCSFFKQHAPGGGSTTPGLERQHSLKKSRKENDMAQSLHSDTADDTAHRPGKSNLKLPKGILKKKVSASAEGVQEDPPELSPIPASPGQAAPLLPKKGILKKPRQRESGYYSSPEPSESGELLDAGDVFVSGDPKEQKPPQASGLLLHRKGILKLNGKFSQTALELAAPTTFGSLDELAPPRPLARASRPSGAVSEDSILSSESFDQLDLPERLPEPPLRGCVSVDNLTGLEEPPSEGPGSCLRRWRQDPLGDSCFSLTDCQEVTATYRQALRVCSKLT
The source made the active and inactive calls.
Classes used: active, inactive

> print(dat)
                             chemical.smiles                          target.or.system     class
 1  Cn1cnc2c(F)c(Nc3ccc(Br)cc3F)c(C(=O)NOCCO)cc21  NUAK family SNF1-like kinase 2 (Homo sapiens)  inactive
 2  C[C@@H](N)c1ccc(C(=O)Nc2ccnc3[nH]ccc23)cc1  NUAK family SNF1-like kinase 2 (Homo sapiens)  inactive
 3  O=C(Cc1ccc(-c2ccc(OCCN3CCOCC3)cc2)cn1)NCc1ccccc1  NUAK family SNF1-like kinase 2 (Homo sapiens)  inactive
 4  COc1ccc(S(=O)(=O)N(C(C)=O)c2ccccc2/C=C/c2cc[n+]([O-])cc2)cc1  NUAK family SNF1-like kinase 2 (Homo sapiens)  inactive
 5  CNC(=O)c1cc(Oc2ccc(NC(=O)Nc3cc(C(C)(C)C)nn3-c3ccc4ncccc4c3)c(F)c2)ccn1  NUAK family SNF1-like kinase 2 (Homo sapiens)  inactive
 6  Nc1ncnc2c1c(-c1cccc(OCc3ccccc3)c1)cn2[C@H]1C[C@@H](CN2CCC2)C1  NUAK family SNF1-like kinase 2 (Homo sapiens)  inactive
 7  O=C(Nc1cc(C(F)(F)F)cc(C(F)(F)F)c1)c1cc(Cl)ccc1O  NUAK family SNF1-like kinase 2 (Homo sapiens)  inactive
 8  Cc1cc(C(=O)NOCCO)c(Nc2ccc(I)cc2F)n(C)c1=O  NUAK family SNF1-like kinase 2 (Homo sapiens)  inactive
 9  FC(F)(F)c1ccc(/C=C/c2nc(COc3ccc(CCCCn4ccnn4)cc3)co2)cc1  NUAK family SNF1-like kinase 2 (Homo sapiens)  inactive
10  N#CC1(c2ccc(NC(=O)c3cccnc3NCc3ccncc3)cc2)CCCC1  NUAK family SNF1-like kinase 2 (Homo sapiens)  inactive
11  COc1c(OCCCN2CCOCC2)ccc2c1N=C(NC(=O)c1cnc(N)nc1)N1CCN=C21  NUAK family SNF1-like kinase 2 (Homo sapiens)  inactive
12  CC(C)c1cc(CNc2nc(Nc3cc(C4CC4)[nH]n3)cc(N3CCN(C)CC3)n2)on1  NUAK family SNF1-like kinase 2 (Homo sapiens)  inactive
13  CCS(=O)(=O)c1cccc(-c2cc(C(=O)NC3CCN(C)CC3)c(C)c3[nH]c4ncc(C)cc4c23)c1  NUAK family SNF1-like kinase 2 (Homo sapiens)    active
14  Cn1ncc(Cl)c1-c1cc(C(=O)N[C@H](CN)Cc2ccc(F)c(F)c2)oc1Cl  NUAK family SNF1-like kinase 2 (Homo sapiens)  inactive
15  Cc1nc(Nc2n[nH]c3c2CN(C(=O)N[C@H](CN(C)C)c2ccccc2)C3(C)C)c2sccc2n1  NUAK family SNF1-like kinase 2 (Homo sapiens)  inactive
16  Cc1cccc(-c2nn3c(c2-c2ccnc4ccc(C(N)=O)cc24)CCC3)n1  NUAK family SNF1-like kinase 2 (Homo sapiens)  inactive
17  Cc1csc(-c2nnc(Nc3ccc(Oc4ncccc4-c4ccnc(N)n4)cc3)c3ccccc23)c1  NUAK family SNF1-like kinase 2 (Homo sapiens)  inactive
18  CCCCCCCCCCCCCCCCCCOP(=O)([O-])OC1CC[N+](C)(C)CC1  NUAK family SNF1-like kinase 2 (Homo sapiens)  inactive
